Test system: PA-1
Test: Primary qHTS to identify gynecologic anti-cancer compounds using libraries of approved drugs and bioactive compounds (AID 1345084); further: on the % scale 0 is the no-effect control and ±100 the full control effect; nearly all actives have a fitted effect of over 55% in size
Conditions: Gynecologic cancer cell panel viability, ATPlite luminescence, 48 h; series mostly up to 57.5 µM
Records with an inconclusive call do not appear. Activity calls are given as the source filed them. The call rests on the fitted dose curve; in most records, active means well fitted cell-killing curve with a large enough effect; inconclusive means small, poorly fitted or top-dose-only effect, or effect the other way; inactive means flat fitted curve, though single readings scatter. Where a SMILES comes first, the peptide text is derived from it.
Parameter: activity change, negative = cytotoxicity

The examples below pair each entry with its known result.
Compound | Tested on | activity change, negative = cytotoxicity
C[C@@H](O)[C@H](N)C(=O)N1CCC[C@H]1C(=O)N1CCC[C@H]1C(=O)N[C@H](C(N)=O)[C@@H](C)O (H-TPPT-NH2) | PA-1 | -4.12% [at 11.6 µM] (inactive)
C[C@@H]1O[C@@H](O[C@H]2[C@H](OC(=O)C34CCC5(C)C(=CCC6C7(C)CC(O)C(O[C@@H]8O[C@H](C(=O)O)[C@@H](O)[C@H](O)[C@H]8O)C(C)(C(=O)O)C7CCC65C)C3CC(C)(C)CC4O)O[C@H](C)[C@@H](O)[C@@H]2O)[C@H](O)[C@@H](O[C@@H]2OC[C@](O)(CO)[C@H]2O[C@@H]2O[C@H](CO)[C@@H](O)[C@H](O)[C@H]2O)[C@H]1O (some centres undefined) | PA-1 | 9.01% [at 6.55 µM] (inactive)
CC1(O)CCC2C(C(=O)O)=COC(OC3OC(CO)C(O)C(O)C3OC(=O)/C=C/c3ccc(O)cc3)C21 (centres undefined) | PA-1 | inactive
C/C=C(\C)C(=O)O[C@H]1[C@H](O)[C@]2(COC(C)=O)[C@H](O)C[C@]3(C)C(=CCC4[C@@]5(C)CC[C@H](O[C@@H]6O[C@H](C(=O)O)[C@@H](O[C@@H]7O[C@H](CO)[C@@H](O)[C@H](O)[C@H]7O)[C@H](O)[C@H]6O[C@@H]6O[C@H](CO)[C@@H](O)[C@H](O)[C@H]6O)[C@](C)(CO)C5CC[C@]43C)[C@@H]2CC1(C)C (some centres undefined) | PA-1 | 25.1% [at 11.6 µM] (inactive)
CC(=O)O[C@@H]1[C@H]2[C@@H](OC(=O)c3ccccc3)[C@@H](C)C[C@]2(O)[C@H](OC(C)=O)[C@@]2(C)[C@@H]3CC(C)(C)C(=O)[C@]3(OC(C)=O)C[C@@]12C | PA-1 | inactive

### Prompt Which activity change, negative = cytotoxicity value belongs to CNC(=O)[C@H]1O[C@@H](n2cnc3c(NCc4ccc(N)c(I)c4)ncnc32)[C@H](O)[C@@H]1O ?
### Response 0.696% [at 11.6 µM] (inactive)

### Prompt Which activity change, negative = cytotoxicity value belongs to C[C@]12CCC[C@](C)(C(=O)O)C1CCC13C=C(CO)C(CCC12)C3 (some centres undefined) ?
### Response inactive

### Prompt Which activity change, negative = cytotoxicity value belongs to C=CC(C)(O)CO[C@@H]1O[C@H](CO)[C@@H](O)[C@H](O)[C@H]1O (some centres undefined) ?
### Response inactive

### Prompt Which activity change, negative = cytotoxicity value belongs to C[C@@H]1O[C@@H](O[C@H]2[C@H](OC(C#N)c3ccc(O)cc3)O[C@H](CO)[C@@H](O)[C@@H]2O)[C@H](O)[C@H](O)[C@H]1O (some centres undefined) ?
### Response inactive

### Prompt Which activity change, negative = cytotoxicity value belongs to Clc1ccc(CN[C@H]2CCN(c3ncc(Br)cn3)C2)c(Cl)c1 ?
### Response inactive

### Prompt Which activity change, negative = cytotoxicity value belongs to N#CC1C(=O)Nc2scc(-c3ccc(-c4ccccc4O)cc3)c2C1=O (centres undefined) ?
### Response inactive

### Prompt Which activity change, negative = cytotoxicity value belongs to O=C1C[C@@H](c2ccc(O)cc2)Oc2cc(O)ccc21 ?
### Response inactive

### Prompt Which activity change, negative = cytotoxicity value belongs to O=C(/C=C/c1ccccc1)OCC1=CC[C@@H]2C(C(=O)O)=CO[C@@H](O[C@@H]3O[C@H](CO)[C@@H](O)[C@H](O)[C@H]3O)[C@H]12 ?
### Response inactive

### Prompt Which activity change, negative = cytotoxicity value belongs to Cc1cccc(-c2[nH]c(CNc3ccccc3F)nc2-c2ccc3ncnn3c2)n1 ?
### Response inactive

====

System: CRL-7250
Test: Cytotoxic Profiling of Annotated Libraries Using Quantitative High-Throughput Screening (AID 1296008); further: on the % scale 0 is the no-effect control and ±100 the full control effect; nearly all actives have a fitted effect of over 60% in size
Conditions: Five cell lines viability, CellTiter-Glo ATP luminescence, 48-72 h; active compounds read low
Records with an inconclusive call do not appear.
Parameter: max response (%)
Please state the figure in %; there is no need to write the unit.

The examples below pair each entry with its known result.
Molecule | Value unit | max response
CC1=CC(=O)C[C@H]2[C@@H]1CC[C@@H](C)[C@]21CO[C@H](c2ccoc2)C1=O | % | 3.91
c1ccc(Nc2nc3c(s2)CCCc2[nH]ncc2-3)nc1 | % | -6.19
C[C@@H]1O[C@@H](O[C@@H]2[C@@H](O)[C@H](O[C@@H]3[C@@H](O)[C@@H](O)[C@H](O[C@H]4[C@H](OC(=O)[C@]56CCC(C)(C)C[C@H]5C5=CCC7[C@@]8(C)C[C@H](O)[C@H](O[C@@H]9O[C@@H](C)[C@H](O)[C@@H](O)[C@H]9O)[C@@](C)(CO)C8CC[C@@]7(C)[C@]5(C)C[C@H]6O)O[C@H](C)[C@H](O)[C@@H]4O)O[C@H]3C)OC[C@H]2O)[C@H](O)[C@H](O)[C@H]1O (stereo partly specified) | % | 4.2
CC(O)C(O)/C=C/C=C/C(=O)O[C@@H]1C=C2COC(=O)[C@]2(O)[C@@]2(C)CCCC(C)(C)C12 (stereo partly specified) | % | 3.05
COc1cc(/C=C/C(=O)OC2[C@H](O)CC(O)(C(=O)O)C[C@H]2O)ccc1O (stereo partly specified) | % | 3.9

### Prompt Which max response value belongs to C/C1=C\C[C@H](O[C@@H]2O[C@H](CO)[C@@H](O)[C@H](O)[C@H]2O)/C(C)=C/[C@H]2OC(=O)[C@H](C)[C@@H]2CC1 ?
### Response -3.83

====

System: CRL-7250
Test: Cytotoxic Profiling of Annotated Libraries Using Quantitative High-Throughput Screening (AID 1296008); further: on the % scale 0 is the no-effect control and ±100 the full control effect; nearly all actives have a fitted effect of over 60% in size
Conditions: Five cell lines viability, CellTiter-Glo ATP luminescence, 48-72 h; active compounds read low
Records with an inconclusive call do not appear.
# key: entry, value: max response
Please state the figure in %; there is no need to write the unit.

The examples below pair each entry with its known result.
Compound | max response, %
COC(=O)C1=CO[C@@H](O[C@@H]2O[C@H](CO)[C@@H](O)[C@H](O)[C@H]2O)[C@@H]2[C@@H](C)[C@@H](O)C[C@H]12 | -3.5
COCCCNCC1COc2ccccc2O1 (stereo not given) | 1.45
CC1C/C=C/C=C\CCCCC(O)C/C=C/C(=O)O1 (stereo not given) | 4.17
CC(C)N(C[C@H]1O[C@@H](n2cnc3c(N)ncnc32)[C@H](O)[C@@H]1O)C1CC(CCc2nc3ccc(C(C)(C)C)cc3[nH]2)C1 (stereo not given in full) | -0.229
C=C1CC2(C(=O)O)CC1CCC2C1(C)CCCC2(C)C(=O)OC(O)C21 (stereo not given) | -12.2

### Prompt Which max response value belongs to CC1CCC2(C(=O)OC3OC(CO)C(O)C(O)C3O)CCC3(C)C(=CCC4C5(C)CC(O)C(O)C(C)(C(=O)O)C5CCC43C)C2C1(C)O (stereo not given) ?
### Response 3.23

### Prompt Which max response value belongs to CC(C)=CCc1ccc(Oc2c(O)cc(C)cc2CO)c(C(=O)O)c1O ?
### Response -1.26

### Prompt Which max response value belongs to CC1(C)CC[C@]2(C(=O)O)CC[C@]3(C)C(=CCC4[C@@]5(C)CCC(O[C@@H]6OC[C@H](O)[C@H](O)[C@H]6O[C@@H]6O[C@H](CO)[C@@H](O)[C@H](O)[C@H]6O)[C@@](C)(CO)C5CC[C@]43C)[C@@H]2C1 (stereo not given in full) ?
### Response -0.0042

### Prompt Which max response value belongs to C=C(C(=O)O)[C@@H]1CC=C2CCC[C@H](C)[C@@]2(C)C1 ?
### Response -11.2

### Prompt Which max response value belongs to COc1cc([C@H]2OC[C@@H]3[C@@H](c4ccc(O[C@@H]5O[C@H](CO)[C@@H](O)[C@H](O)[C@H]5O)c(OC)c4)OC[C@]23O)ccc1O ?
### Response -6.95

### Prompt Which max response value belongs to C=C1[C@@H]2CC[C@@]3(C)[C@H](c4ccoc4)OC(=O)C[C@]13O[C@H]1CC(=O)C(C)(C)[C@H](CC(=O)OC)[C@]12C ?
### Response -0.448

### Prompt Which max response value belongs to CC(C)[C@@H](C)/C=C/[C@@H](C)[C@H]1CC[C@H]2C3=CC=C4C[C@@H](O)CC[C@]4(C)[C@H]3CC[C@]12C ?
### Response -9.59

### Prompt Which max response value belongs to COC(=O)C[C@@H]1C(C(=O)O)=CO[C@@H](O[C@@H]2O[C@H](CO)[C@@H](O)[C@H](O)[C@H]2O)/C1=C\COC(=O)/C=C\c1ccccc1 ?
### Response -11.7

### Prompt Which max response value belongs to Cc1nnc(C(C)C)n1C1CC2CCC(C1)N2CCC(NC(=O)C1CCC(F)(F)CC1)c1ccccc1 (stereo not given) ?
### Response -10.9

### Prompt Which max response value belongs to CCNC(=O)[C@H]1O[C@H](n2cnc3c(NCC(c4ccccc4)c4ccccc4)nc(C(=O)NCCNC(=O)NC4CCN(c5ccccn5)CC4)nc32)[C@H](O)[C@@H]1O ?
### Response -2.5
